pKi: −log10 of the molar value.
The following molecules each carry a recorded pKi for Cannabinoid receptor 2 (Homo sapiens, UniProt P34972).
parameter: pKi

# smiles-entry, parameter, readout-value
data = [
    ("N#Cc1c(C(F)(F)F)ccc2c1oc1cccc(OS(=O)(=O)CCCC(F)(F)F)c12", "pKi", 5.74),
    ("N#Cc1c(C(F)(F)F)ccc2c1Oc1c(cccc1OS(=O)(=O)CCCC(F)(F)F)C2", "pKi", 5.94),
    ("N#Cc1c(C(F)(F)F)ccc2c1oc1ccc(OS(=O)(=O)CCCC(F)(F)F)cc12", "pKi", 5.48),
    ("N#Cc1c(C(F)(F)F)ccc2c1oc1c(OS(=O)(=O)CCCC(F)(F)F)cccc12", "pKi", 6.60),
    ("N#Cc1c(C(F)(F)F)ccc2c1oc1cc(OS(=O)(=O)CCCC(F)(F)F)ccc12", "pKi", 6.50),
]
